GI50 by entry:
Tested on: SN12C
Assay: NCI tumour cell line growth inhibition, 48 h
Activity calls are given as the source filed them. Cut-off read from the data, not from the text of the source: active = GI50 up to about 1.1 µM and inactive = higher.

Here is how some molecules turned out for GI50.
Molecule: CC(C)NC(=O)CN1CCN(C2=CC(=O)c3c(O)ccc(O)c3C2=O)CC1
Data value: 14.5 µM (inactive)
--
Molecule: NCCSc1cc(O)c2c(c1N)C(=O)c1ccccc1C2=O
Data value: 47.1 µM (inactive)
--
Molecule: C[N+]12CCCCC1C(CN1C(=O)c3ccccc3C1=O)CCC2 (centres undefined)
Data value: > 100 µM (inactive)
--
Molecule: CC(C)CCC[C@@H](C)C1CCC2[C@@H]3CC=C4C[C@@H](C(=O)NCC[N+](C)(C)CCCS(=O)(=O)[O-])CC[C@]4(C)C3CC[C@@]21C (some centres undefined)
Data value: 17.9 µM (inactive)
--
Molecule: N#CCC12CC=CCC1=C(O)C(=O)c1ccc(O)cc12 (centres undefined)
Data value: > 100 µM (inactive)

Entry Nc1nc(Cl)c(N)c(NC23CC4CC(CC(C4)C2)C3)n1 : reported GI50 = ?
1.82 µM (inactive)

Entry N#CC1C(=S)NC(c2ccccc2)=CC12CCCCC2 (centres undefined) : reported GI50 = ?
35 µM (inactive)

Entry O=C(CNC(=O)OCc1ccccc1)NCCCCC(NC(=O)OCc1ccccc1)C(=O)NC(CCCCNC(=O)CNC(=O)OCc1ccccc1)C(=O)OCc1ccccc1 (centres undefined) : reported GI50 = ?
> 62.5 µM (inactive)

Entry CCCCc1nccc2c(C)c3[nH]c4ccccc4c3cc12 : reported GI50 = ?
6.98 µM (inactive)

Entry O=C1/C(=C/c2ccc(O)cc2)NC(=S)N1CN1CCCCC1 : reported GI50 = ?
80 µM (inactive)

Entry CCC1CN2CCc3cc(OC)c(OC)cc3C2CC1CC1c2cc(OC)c(OC)cc2CCN1C(=O)C(Cc1c[nH]c2ccccc12)NC(=O)OC(C)(C)C (centres undefined) : reported GI50 = ?
3.26 µM (inactive)

Entry O=C(/C=C/c1ccc(C(F)(F)F)cc1)c1c([O-])on[n+]1-c1ccccc1 : reported GI50 = ?
2.23 µM (inactive)

Entry CCOC(=O)C(=O)Nc1c(CC)cccc1C(C)C : reported GI50 = ?
> 100 µM (inactive)

Entry Cc1cc(NS(=O)(=O)c2ccc(Nc3c4ccccc4nc4ccc(C(=O)Nc5ccc(S(N)(=O)=O)cc5)cc34)cc2)no1 : reported GI50 = ?
> 100 µM (inactive)

----------
Tested on: NCI-H460
Assay: NCI tumour cell line growth inhibition, 48 h
Active and inactive are the calls of the source. Rule as the data show it: active = GI50 up to about 1.1 µM and inactive = higher.
Readout label: GI50

Compound: CC[C@@]1(O)C(=O)OCc2c1cc1n(c2=O)Cc2c-1nc1ccccc1c2/C=N\NC(=O)C(N)CC(C)C (stereo not given in full)
Data value: < 0.01 µM (active)
--
Compound: C[N+]12CCCCC1C(CN1C(=O)c3ccccc3C1=O)CCC2 (stereo not given)
Data value: > 100 µM (inactive)
--
Compound: Nc1ncc2c(n1)-c1ccccc1OC2N1CCCCC1 (stereo not given)
Data value: > 100 µM (inactive)
--
Compound: Cc1ccc(OCC2OC(n3cnc4c(N(C)C)nc(Br)nc43)CC2Oc2ccc(C)cc2)cc1 (stereo not given)
Data value: > 100 µM (inactive)
--
Compound: COc1ccc(/C(Cl)=C(\C=O)c2ccc(Cl)cc2)cc1
Data value: 3.81 µM (inactive)
--
Compound: NNC(=S)N/N=C(\c1nc2ccc(Cl)cc2nc1O)C(O)c1cccc([N+](=O)[O-])c1 (stereo not given)
Data value: > 75 µM (inactive)
--
Compound: OC(c1ccc(F)cc1)C(F)(F)c1nc2ccccc2o1 (stereo not given)
Data value: > 100 µM (inactive)
--
Compound: COC(=O)C1=NN2c3ccccc3C(=O)OCCC2C1 (stereo not given)
Data value: > 100 µM (inactive)

Entry N#CCC(=O)N/N=C(\C(=O)Nc1ccc(Cl)c(Cl)c1)C1CN(c2ccccc2)N=C1N (stereo not given) : reported GI50 = ?
> 100 µM (inactive)

Entry O=c1c2cc(Br)ccc2oc2nc3n(c(=O)c12)CCCS3 : reported GI50 = ?
> 100 µM (inactive)

----------
Tested on: HCC 2998
Test: NCI tumour cell line growth inhibition, 48 h
Calls of active or inactive are those of the source. Cut-off read from the data, not from the text of the source: active = GI50 up to about 1.1 µM and inactive = higher.
GI50 by entry:

Here is how some compounds turned out for GI50.
Compound: CC(=O)O[C@@H]1CC(C)C2CC2C2=C(C(O)OC2O)[C@@H]1C(C)CCC=C(C)C (stereo not given in full)
Readout label: GI50
Data value: 20.8 µM (inactive)
//
Compound: CCOC(=O)COc1cc(-c2ccccc2)nc2cc(F)ccc12
Readout label: GI50
Data value: > 100 µM (inactive)

Entry N#C/C(=C/C=C/c1ccco1)C(N)=O : reported GI50 = ?
> 10 µM (inactive)

Entry COc1ccc2nc3cc(Cl)ccc3c(Nc3ccc(O)c(CN4CCN(C)CC4)c3)c2c1 : reported GI50 = ?
1.19 µM (inactive)

Entry Cc1ccc(S(=O)(=O)N2C[C@@H]3CC[C@]4(CO[Si](C)(C)C(C)(C)C)N[C@@H](c5ccccc5)[C@H]2[C@H]34)cc1 : reported GI50 = ?
18.4 µM (inactive)

Entry CC(C)NC(=O)CN1CCN(C2=CC(=O)c3c(O)ccc(O)c3C2=O)CC1 : reported GI50 = ?
16.7 µM (inactive)

Entry O=C1C(Cl)=C(Cl)C(=O)N1C1C2CC3CC(C2)CC1C3 (stereo not given) : reported GI50 = ?
> 100 µM (inactive)

Entry O=C(CC1(O)C(=O)Nc2ccc(Br)cc21)c1cccc([N+](=O)[O-])c1 (stereo not given) : reported GI50 = ?
65 µM (inactive)

Entry Clc1cc(Cl)ncn1 : reported GI50 = ?
> 100 µM (inactive)

Entry COC(=O)c1oc([N+](=O)[O-])c(-c2ccccc2)c1-c1ccccc1 : reported GI50 = ?
> 100 µM (inactive)

Entry CC(C)(C)C1CCC2c3c([nH]c4ccccc34)C3C(=O)N(c4ccc(C(=O)O)cc4)C(=O)C3C2C1 (stereo not given) : reported GI50 = ?
15.6 µM (inactive)

Entry N=C(N)NS(=O)(=O)c1ccc(NC(=O)c2ccc3nc4ccccc4c(Nc4ccc(S(N)(=O)=O)cc4)c3c2)cc1 : reported GI50 = ?
> 100 µM (inactive)

Entry O=c1[nH]c(=O)n([C@H]2CCCO2)cc1F : reported GI50 = ?
89.7 µM (inactive)

----------
System: RPMI-8226
Test: NCI tumour cell line growth inhibition, 48 h
Calls of active or inactive are those of the source. No stated cut-off is given here; in the data, active = GI50 up to about 1.1 µM and inactive = higher.
Outcomes you can answer with include only these: active, inactive

Consider the worked cases shown below.
Molecule: N=C(N)NC(CC(=O)O)c1ccccc1 (centres undefined)
Study system: RPMI-8226
Class: inactive

Molecule: COc1ccc(Nc2nc3ccccc3n3cccc23)cc1OC
Study system: RPMI-8226
Class: inactive

Molecule: CCOc1cc2c(cc1O)C=C[C@@H]1[C@@H]2CC[C@]2(C)[C@@H](O)CC[C@@H]12
Study system: RPMI-8226
Class: inactive

Molecule: O=C(CCCc1ccccn1)c1ccccc1
Study system: RPMI-8226
Class: inactive

Molecule: COc1ccc(-c2ccccc2)c(N/N=C2\CCCNC2=O)c1
Study system: RPMI-8226
Class: inactive

Please find the next molecule below.
How was FC(F)(F)C1(Br)C(c2ccccc2)=C1c1ccccc1 classified in this test?
inactive

----------
GI50 by entry:
System: OVCAR-8
Experiment: NCI tumour cell line growth inhibition, 48 h
Activity calls are given as the source filed them. No stated cut-off is given here; in the data, active = GI50 up to about 1.1 µM and inactive = higher.

Here is how some compounds turned out for GI50.
Compound: c1ccc(CN2CCC3(CC2)SSC2(CCN(Cc4ccccc4)CC2)S3)cc1
Data value: > 100 µM (inactive)

Compound: O=c1[nH]c(=O)n([C@H]2CCCO2)cc1F
Data value: 655 µM (inactive)

Compound: CC1=CC2CC(C)C1(C)CCc1ccoc12 (stereo not given)
Data value: > 100 µM (inactive)

Compound: CC(C)OP(=O)(OC(C)C)/C(=N/Nc1ccc([N+](=O)[O-])cc1)NN
Data value: > 100 µM (inactive)

Compound: O=[N+]([O-])c1ccc(/N=N/c2c(O)ccc3cc(S(=O)(=O)O)ccc23)cc1
Data value: > 100 µM (inactive)

Compound: CN1CCc2cc(O)c3cc2C1Cc1ccc(cc1)Oc1cc(ccc1O)CC1c2c(cc4c(c2O3)OCO4)CCN1C (stereo not given)
Data value: 19.8 µM (inactive)

Entry CCC12CCC(O)C1N(C)CCC2Sc1ccccc1 (stereo not given) : reported GI50 = ?
> 100 µM (inactive)

Entry CC(=O)O[C@@H]1CC(C)C2CC2C2=C(C(O)OC2O)[C@@H]1C(C)CCC=C(C)C (stereo not given in full) : reported GI50 = ?
27 µM (inactive)

Entry C[C@H]1[C@H](N2CCCC2)O[Si](C(C)(C)C)(C(C)(C)C)[C@@H]1C : reported GI50 = ?
> 100 µM (inactive)

Entry O=C1C(c2ccccc2)=[N+]([O-])c2ccc(Cl)cc21 : reported GI50 = ?
15 µM (inactive)
